// IC50 collected for XPNPEP1 (Homo sapiens (Human), UniProt Q9NQW7)
Numbers only, in µM.

- MOLECULE: "CCCC[C@@H](N)[C@H](O)C(=O)N1CCC[C@H]1C(=O)OC [CQ63]"
  READING UNIT: "µM"
  IC50: 92
- MOLECULE: "COC(=O)[C@H](C)NC(=O)[C@@H]1CCCN1C(=O)[C@@H]1CCCN1C(=O)[C@@H](O)[C@H](N)CC(C)C [CQ50]"
  READING UNIT: "µM"
  IC50: 8.1
- MOLECULE: "CC(C)C[C@H](NC(=O)[C@@H]1CCCN1C(=O)[C@@H](O)[C@H](N)CC(C)C)C(=O)N1CCC1 [CQ112]"
  READING UNIT: "µM"
  IC50: 95
- MOLECULE: "CC(C)C[C@H](NC(=O)[C@@H]1CCCN1C(=O)[C@@H](O)[C@H](N)CC(C)C)C(N)=O [CQ96]"
  READING UNIT: "µM"
  IC50: 10
- MOLECULE: "CONC(=O)[C@H](CC(C)C)NC(=O)[C@@H]1CCCN1C(=O)[C@@H](O)[C@H](N)CC(C)C [CQ111]"
  READING UNIT: "µM"
  IC50: 84
- MOLECULE: "CC(C)C[C@H](NC(=O)[C@@H]1CCCN1C(=O)[C@@H](O)[C@H](N)CC(C)C)C(=O)NS(=O)(=O)N(C)C [CQ113]"
  READING UNIT: "µM"
  IC50: 2.9
- MOLECULE: "CC(C)C[C@H](NC(=O)[C@@H]1CCCN1C(=O)[C@@H](O)[C@H](N)CC(C)C)C(=O)NCCc1ccccc1 [CQ116]"
  READING UNIT: "µM"
  IC50: 3.4

Please find the next molecule below.
## Task Consider the molecule COC(=O)[C@@H]1CCCN1C(=O)[C@@H](O)[C@H](N)CCC(F)(F)F [CQ43] and give its measured IC50.
## Result 115

Data provenance is patent US20250368624A1.
